Species on record: Cavia porcellus
Experiment: Percent inhibition of LTC4-induced contraction in guinea pig parenchymal strip test, at a concentration of 30 uM
Type: functional
Provide the reported inhibition at 30 µM of each item.
Numbers only, in %.

COMPOUND	U	inhibition at 30 µM
CCCCCC(O)c1cccc(Oc2ccc3ccccc3n2)c1 (centres undefined)	%	26
CCCCC(C)(C)C(O)c1cccc(OCc2cccc(C(=O)OC)c2)c1 (centres undefined)	%	0
CCCCCC(OC1CCCCO1)c1cccc(OCc2cccc(C(=O)OC)c2)c1 (centres undefined)	%	0

Now consider a different compound.
query: Entry under review: CCCCCC(O)c1cccc(OCc2ccccn2)c1 (centres undefined) . Reported inhibition at 30 µM?
result: 37

###

Organism: Cavia porcellus
Assay: Percent inhibition of LTC4-induced contraction in guinea pig parenchymal strip test, at a concentration of 30 uM
Type: functional
EXPERIMENTAL ENDPOINT: inhibition at 30 µM (%)
One number for each entry, in %.

Go through the list and state inhibition at 30 µM for each entry.
1. CCCCCC(O)c1cccc(OCc2ccc(C(=O)O)cc2)c1 (stereo not given)
2. CCCC/C=C(/C)c1ccccc1OCc1cccc(C(=O)OC)c1
3. CCCCCC(=O)c1cccc(/C=C/c2ccccc2)c1

result:
[22, 7, 0]

###

Molecular target: Polyunsaturated fatty acid 5-lipoxygenase (Rattus norvegicus) (UniProt P12527)
Sequence (P12527 whole entry): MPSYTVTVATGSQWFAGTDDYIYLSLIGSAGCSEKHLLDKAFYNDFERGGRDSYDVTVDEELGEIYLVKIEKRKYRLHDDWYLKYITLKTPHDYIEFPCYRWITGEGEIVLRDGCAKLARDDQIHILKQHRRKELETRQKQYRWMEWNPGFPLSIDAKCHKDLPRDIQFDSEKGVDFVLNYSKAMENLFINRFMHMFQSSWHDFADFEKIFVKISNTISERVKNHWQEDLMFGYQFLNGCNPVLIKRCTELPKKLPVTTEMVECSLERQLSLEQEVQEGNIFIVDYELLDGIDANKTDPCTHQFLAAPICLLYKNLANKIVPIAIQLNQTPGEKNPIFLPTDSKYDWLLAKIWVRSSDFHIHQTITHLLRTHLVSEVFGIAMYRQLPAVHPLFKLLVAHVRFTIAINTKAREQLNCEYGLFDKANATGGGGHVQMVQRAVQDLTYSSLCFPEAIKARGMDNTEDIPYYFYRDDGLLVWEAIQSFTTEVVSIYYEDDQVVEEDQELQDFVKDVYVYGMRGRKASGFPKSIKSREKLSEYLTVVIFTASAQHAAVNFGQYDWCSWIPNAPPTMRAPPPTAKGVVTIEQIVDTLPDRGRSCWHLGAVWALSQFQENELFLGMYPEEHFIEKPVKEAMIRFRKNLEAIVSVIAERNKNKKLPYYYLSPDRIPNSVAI
Test: IC50 for inhibition of rat neutrophil 5-lipoxygenase (5-LO)
Provide the reported IC50 of each item.
One number for each entry, in µM.

For orientation, consider the following solved cases.
COMPOUND	IC50 (µM)
CCCCC(O)c1cccc(OCc2ccccc2C(=O)O)c1 (configuration not stated)	10
CCCCCC(NC)c1cccc(OCc2ccccc2)c1 (configuration not stated)	22
CCCCCC(O)c1cccc(OCc2ccccc2C(=O)OC)c1 (configuration not stated)	0.6
CCCCCC(O)c1cccc(COc2ccccc2)c1 (configuration not stated)	6.7
CCCCCC(O)c1cccc(Oc2ccccc2)c1 (configuration not stated)	1.2

Go through the list and state IC50 for each entry.
1. CCCCCC(O)c1ccccc1OCc1cccc(C(=O)OC)c1 (configuration not stated)
2. CCCCCC(O)c1cccc(OCc2cccc(C=O)c2)c1 (configuration not stated)
3. CCCCCC(O)c1cccc(OCc2cccnc2)c1 (configuration not stated)
4. CCCC/C=C(/C)c1ccccc1OCc1cccc(C(=O)OC)c1
5. CCCCCC(O)c1cccc(OCc2ccc(C(=O)O)cc2)c1 (configuration not stated)

result:
1. 3.2
2. 4
3. 2.7
4. 5
5. 21

###

Species: Cavia porcellus
Experiment: Percent inhibition of LTC4-induced contraction in guinea pig parenchymal strip test, at a concentration of 30 uM
Format: functional
Where inhibition at 30 µM equals or exceeds 10%, the correct label is met; where it does not, the label is not met.

The examples below pair each entry with its known result.
COMPOUND	LABEL
CCCCCC(=O)c1cccc(OCc2cccc(C#N)c2)c1	not met
CCCCCC(O)c1cccc(OCc2ccccc2C(=O)OC)c1 (configuration not stated)	met
CCCCCC(O)c1cccc(COc2ccccc2)c1 (configuration not stated)	met
CCCCCC(OC(C)=O)c1cccc(OCc2cccc(C(=O)OC)c2)c1 (configuration not stated)	not met
CCCCCC(O)c1cccc(OCc2cccc(C(=O)OC)c2)c1 (configuration not stated)	met

In the following, a different compound is considered.
query: Dear colleague, could you confirm whether CCCCCC(O)c1cccc(OCc2cccc(CC(=O)OC)c2)c1 (configuration not stated) has inhibition at 30 µM at or above 10%?
result: met

The values you see were collected from ChEMBL document CHEMBL1123859.
